target: DGKα (Homo sapiens (Human)); also: full length DGKα 7.5 nM
Sequence (P23743 whole entry): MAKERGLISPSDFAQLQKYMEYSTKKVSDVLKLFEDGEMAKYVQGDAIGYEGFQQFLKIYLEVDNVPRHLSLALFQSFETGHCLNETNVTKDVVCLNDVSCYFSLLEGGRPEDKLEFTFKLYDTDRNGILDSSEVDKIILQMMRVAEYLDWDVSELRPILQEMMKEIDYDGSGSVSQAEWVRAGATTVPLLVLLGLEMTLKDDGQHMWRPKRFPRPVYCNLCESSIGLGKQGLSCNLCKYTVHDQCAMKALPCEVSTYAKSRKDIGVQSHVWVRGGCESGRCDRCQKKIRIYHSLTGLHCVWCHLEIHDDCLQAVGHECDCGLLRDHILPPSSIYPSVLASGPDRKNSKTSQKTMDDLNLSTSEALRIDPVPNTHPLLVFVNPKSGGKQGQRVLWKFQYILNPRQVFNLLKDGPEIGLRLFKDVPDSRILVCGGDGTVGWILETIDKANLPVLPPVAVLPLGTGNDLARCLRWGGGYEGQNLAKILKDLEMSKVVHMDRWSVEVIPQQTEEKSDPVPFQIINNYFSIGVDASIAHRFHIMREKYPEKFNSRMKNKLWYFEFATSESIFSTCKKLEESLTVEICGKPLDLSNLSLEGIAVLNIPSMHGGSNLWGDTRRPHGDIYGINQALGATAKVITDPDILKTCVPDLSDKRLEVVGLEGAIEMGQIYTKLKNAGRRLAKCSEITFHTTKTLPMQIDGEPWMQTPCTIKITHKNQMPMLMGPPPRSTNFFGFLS
pIC50: −log10 of the molar value.
Criterion: pIC50 meeting or surpassing 6. Met: True. Not met: False.

Record excerpt, results attached:
compound | class
CCc1cn2nc(C(C)N3C[C@H](CC)N(c4cc(=O)n(C)c5cn(CC#N)nc45)C[C@H]3CC)ccc2n1 (single isomer, unassigned) [Compound A153b] | True
CC[C@H]1CN(C(C)c2ccc(COC)nc2)[C@H](CC)CN1c1cc(=O)n(C)c2cn(CC#N)nc12 (single isomer, unassigned) [Compound A42b] | False

Given the entry CC[C@@H]1CN(c2cc(=O)n(C)c3cn(CC#N)nc23)[C@@H](C)CN1C(C)c1ccn2nc(C)cc2n1 (single isomer, unassigned) [Compound A172b] , answer whether its pIC50 meets or surpasses 6.
False

Could you verify whether the entry CC[C@H]1CN(C(C)c2ccc(NC(C)=O)c(O)c2F)[C@H](CC)CN1c1cc(=O)n(C)c2cn(CC#N)nc12 (single isomer, unassigned) [Compound A87a] shows pIC50 of no less than 6?
False

State whether the measured pIC50 reaches 6, counting equality as reaching it, for [2H]C([2H])([2H])C(c1ccc2nc(C)sc2n1)N1C[C@H](CC)N(c2cc(=O)n(C([2H])([2H])[2H])c3cn(CC#N)nc23)C[C@H]1CC (single isomer, unassigned) [Compound A142b]
True

Form field: pIC50 at least 6? Entry: CC[C@@H]1CN(c2cc(=O)n(C)c3cn(CC#N)nc23)[C@@H](C)CN1[C@H](C)c1ccn2nc(C)c(F)c2n1 (single isomer, unassigned) [Compound A173b]
False

Assess whether reported pIC50 for CC[C@H]1CN(C(C)c2ccc3sc(C)nc3c2)[C@H](CC)CN1c1cc(=O)n(C)c2cn(CC#N)nc12 (stereo partly drawn) [Compound A108] sits at 6 or higher.
False

Check this compound for pIC50 at or above 6: CC#CCn1cc2c(n1)c(N1C[C@@H](CC)N(C(C)c3ccc4nc(C)sc4n3)C[C@@H]1CC)cc(=O)n2C (stereo partly drawn) [Compound A137]
True

pIC50 >= 6 for CC[C@H]1CN(C(C)c2ccn3nc(C)cc3n2)[C@H](CC)CN1c1nc(=O)n(C)c2cn(CC#N)nc12 (single isomer, unassigned) [Compound A157b] ?
True

Quick check: does CC[C@H]1CN(C(C)c2ccn3ncc(F)c3c2)[C@H](CC)CN1c1cc(=O)n(C)c2cn(CC#N)nc12 (single isomer, unassigned) [Compound A165a] have pIC50 greater than or equal to 6?
True

Is pIC50 at least 6? Consider CC[C@H]1CN(C(C)c2ccc(OC(C)C)cn2)[C@H](CC)CN1c1cc(=O)n(C)c2cn(CC#N)nc12 (single isomer, unassigned) [Compound A51b]
True

Every entry's value here was drawn from patent US20250346597A1.
